Source: patent US20220195070A1

- target_entity: T1, SG115v2 (human, UniProt P01857 1-328 = IgG part)
- T1 construct: Carries the CH3 modifications of SG115 (Leu428, Ala434, Arg438, Glu440, EU); Construct used in the ELISA is not described beyond the constant region; also called modified IgG heavy chain constant region SG115v2
- test_description: ELISA, OD405 against dose (ng/mL, log axis 1-100)

| binder | binding result |
| --- | --- |
| SKA0027 (antibody, V domains shown, Recombinant rabbit monoclonal from B-cell cloning, expressed in FreeStyle 293-F cells; the first screen used B-cell culture supernatant; also called Anti-SG115 Antibody; rabbit Anti Fc-Mutation Antibody) VH: QEQLVESGGGLVQPEGSLTLTCTASGFSFSSSDYMCWVRQAPGKGLEWIGCIYTGSGSTYYASWAKGRFTISKTSSTTVTLQMTSLTAADTATFFCARRGDSYSNYSFKLWGPGTLVTVSS VL: AFELTQTPASVEAAVGGTVTIKCQASQNIYSNLAWYQQKPGQPPKLLIYTASSLASGVSSRFKGSGSGTEFTLTISDLECDDAATYYCQCTYINNGYGNTFGGGTEVVVKG | binds |
| SKA0001 (antibody, V domains shown, Recombinant rabbit monoclonal from B-cell cloning, expressed in FreeStyle 293-F cells; the first screen used B-cell culture supernatant; also called Anti-SG115 Antibody; rabbit Anti Fc-Mutation Antibody) VH: QSVEESGGRLVTPGTPLTLTCTVSGFSLSYYAMNWVRQAPGKGLEWIGIIGISGGTYYASWAKGRFTISKSSSTTVDLKMTSPTTEDTATYFCARGGSAWGDLWGQGTLVTVSS VL: DIVMTQTPSSVSAAVGGTVTINCQASQSISRLLAWYQQKPGQPPKVLMHDASDLASGVPSRFKGSGSGTEYTLTISDLECADAATYYCQSYYWGSSGDIGYPFGGGTEVVVKG | binds |
